Measured composite z-score of individual entries
# ASSAYED_SYSTEM: Neurogenic locus notch homolog protein 3 (Homo sapiens)
# PROTOCOL_SUMMARY: small molecules binding NOTCH3 protein – biochemical, 635/667 nm fluorescence, primary screen (AID 1096)
# MEASUREMENT_PARAMETERS: small-molecule microarray, 635 nm fluorescence, higher = more signal

{"COMPOUND": "COC(=O)[C@@]1(Cc2ccc(F)cc2)[C@H]2c3cc(C(=O)N4CCCC4)n(CCc4ccc(OC)c(Br)c4)c3C[C@H]2CN1C(=O)c1ccccc1", "composite z-score": 1.03}
{"COMPOUND": "C=CCOC(=O)[C@@H]1[C@H]2C(=O)O[C@H](c3ccccc3)[C@H](c3ccccc3)N2[C@H](c2ccc(OCCOC(=O)[C@H]3C[C@H]4C(=O)N[C@@H](CC(C)C)C(=O)N4[C@H]3c3cccc(OCCO)c3)cc2)[C@@]12C(=O)Nc1ccc(I)cc12", "composite z-score": 1.06}
{"COMPOUND": "CN(C)CCCCCCNC(=O)[C@@H]1C[C@@H]2C(=O)NCC(=O)N2[C@@H]1c1cccc(OCCO)c1", "composite z-score": 1.03}
{"COMPOUND": "O=C(N1CCCCC1)[C@]1(CCS(=O)(=O)c2ccccc2)N=C(c2ccc(OCCCO)cc2)O[C@@H]1c1ccccc1", "composite z-score": 1.11}
{"COMPOUND": "COC(=O)[C@@]1(Cc2ccc(F)cc2)[C@H]2c3cc(C(=O)N(C)C)n(CCCNc4ccc(C(F)(F)F)cc4Cl)c3C[C@H]2CN1C(=O)c1ccccc1", "composite z-score": 1.02}
{"COMPOUND": "C=CCNC(=O)[C@H]1[C@@H]2C(=O)O[C@@H](c3ccccc3)[C@@H](c3ccccc3)N2[C@@H](c2ccc(O)cc2)[C@]12C(=O)Nc1ccc(C#Cc3ccc(OC)cc3)cc12", "composite z-score": 1.12}
{"COMPOUND": "CN1C(=O)C2C=CC(C(O)c3ccc(Br)cc3)N(Nc3ccccc3)C2C1=O (stereo unspecified)", "composite z-score": -1.17}
{"COMPOUND": "[N-]=[N+]=NCc1ccccc1[C@H]1OC(c2ccc(OCCCO)cc2)=N[C@@]1(Cc1ccccc1)C(=O)O", "composite z-score": 0.502}
{"COMPOUND": "CCOC(=O)C[C@H]1[C@H](OC(=O)c2ccc(C(=O)c3ccccc3)cc2)[C@@H](NC(=O)c2ccc3ccccc3n2)c2cc(OCCCO)ccc2N1C(=O)c1ccc2ccccc2n1", "composite z-score": 0.486}
{"COMPOUND": "C=CCC(OC(C)=O)[C@@H]1[C@@H](N(Cc2ccc(-c3cccc(C(F)(F)F)c3)o2)C(=O)c2ccc(C)cc2)c2cc(OCCCO)ccc2N1C(=O)c1ccc2ccccc2n1 (stereo partly specified)", "composite z-score": 0.309}
{"COMPOUND": "C[C@H]1C2[C@H](Cc3ccccc3)NC(=O)[C@]23C(=O)N[C@H](Cc2ccccc2)C(=O)N[C@H](Cc2ccccc2)C(=O)NC/C=C/CCC/C=C/C3[C@@H]2O[C@]12C (stereo partly specified)", "composite z-score": 0.62}
{"COMPOUND": "C=CC[C@]1(C(=O)NCCN2CCOCC2)N=C(c2ccc(OCCCO)cc2)O[C@H]1c1ccccc1N=[N+]=[N-]", "composite z-score": 0.991}
{"COMPOUND": "O=C1C2C=CC(C(O)c3ccc(B(O)O)cc3)N(Nc3ccc([N+](=O)[O-])cc3)C2C(=O)N1c1ccccc1 (stereo unspecified)", "composite z-score": 1.03}
{"COMPOUND": "C[N+](C)(C)CCCCNC(=O)[C@H]1C[C@H]2C(=O)N3CCC[C@H]3C(=O)N2[C@H]1c1ccc(O)cc1", "composite z-score": 1.04}
{"COMPOUND": "C=C[C@H](OC)[C@@H](OC(=O)Nc1ccc(SC)cc1)c1ccc(OCCO)cc1", "composite z-score": -0.179}
{"COMPOUND": "C[N+](C)(C)CCCC[C@@H]1NC(=O)[C@H]2C[C@@H](C(=O)O)[C@@H](c3cccc(OCCO)c3)N2C1=O", "composite z-score": 1.1}
{"COMPOUND": "CCOC(=O)C1=CC[C@@H](c2cccc(Cl)c2)N(S(=O)(=O)c2ccc(C)cc2)[C@H]1c1ccc(C#N)cc1", "composite z-score": 1.05}
{"COMPOUND": "COc1c(C)cc(-c2cc3c(c(-c4ccccc4)n2)[Si](C(C)C)(C(C)C)O[C@H]3c2ccccc2)cc1C", "composite z-score": 0.418}
{"COMPOUND": "CCCCN1CC=CC23O[C@@H]4/C=C\\CCCOC(=O)C4[C@H]2C(=O)N(C(C)CO)[C@@H]3C1=O (stereo partly specified)", "composite z-score": -0.0087}
{"COMPOUND": "C=CCC(OC(C)=O)[C@@H]1[C@@H](N(Cc2ccc(-c3ccccc3)cc2)C(=O)c2ccc(C)cc2)c2cc(OCCCO)ccc2N1C(=O)c1ccc2ccccc2n1 (stereo partly specified)", "composite z-score": -0.197}
{"COMPOUND": "COc1ccc([Si](C)(C)[C@H]2[C@H](CCO)O[C@@]3(C(=O)N(Cc4cccc(N5C(=O)c6cccc7cccc5c67)c4)c4ccccc43)[C@@H]2C)cc1", "composite z-score": 0.344}
{"COMPOUND": "COCCCNC(=O)[C@]1(Cc2ccccc2N=[N+]=[N-])N=C(c2ccc(OCCCO)cc2)O[C@@H]1c1ccccc1CN=[N+]=[N-]", "composite z-score": 1.09}
{"COMPOUND": "COc1ccc(C#Cc2ccc3c(c2)[C@]2(C(=O)N3)[C@H](C(=O)N3CCc4cc(OC)c(OC)cc4C3)[C@H]3C(=O)O[C@H](c4ccccc4)[C@H](c4ccccc4)N3[C@@H]2c2ccc(OCCO)cc2)cc1", "composite z-score": 1.17}
{"COMPOUND": "C=CCC(OC(C)=O)[C@@H]1[C@@H](N(Cc2cc3ccccc3o2)C(=O)c2cccc3ccccc23)c2cc(OCCCO)ccc2N1C(=O)Cc1ccc2ccccc2c1 (stereo partly specified)", "composite z-score": -0.164}
{"COMPOUND": "Cc1ccc(F)cc1S(=O)(=O)N[C@@H]1CCN(Cc2ccc(C(F)(F)F)cc2)C1", "composite z-score": -0.145}
{"COMPOUND": "O=C1O[C@H](c2ccccc2)[C@H](c2ccccc2)N2[C@H]1[C@@H](C(=O)N1CCCCCCC1)[C@]1(C(=O)Nc3ccc(C#CC4=CCCCC4)cc31)[C@H]2c1ccc(O)cc1", "composite z-score": 1.02}

====

# PROTOCOL_SUMMARY: resazurin metabolic signal in A549 cells – cell-based, resazurin fluorescence, 24 h, PK04 Diversity Set, profiling panel (AID 1171); note: test concentration not given here
# MEASUREMENT_PARAMETERS: A549 viability, higher = more signal, called active from +8 up or from −8 down

{"COMPOUND": "CN(C)CCCN1C(=O)[C@@]2(c3ccc([N+](=O)[O-])cc3)CC(=O)N(C3CCCCC3)[C@@H]2c2ccc(CO)cc21", "z-score": 0.572}
{"COMPOUND": "CCOC(=O)C[C@H]1[C@H](OC(=O)c2cc3ccccc3oc2=O)[C@@H](NC(=O)c2ccc3ccccc3c2)c2cc(OCCCO)ccc2N1C(=O)c1ccccc1", "z-score": -1.01}
{"COMPOUND": "CCCCC(=C=CC[C@H](O)c1ccccc1OCCO)C[C@H](O)c1cc(Cl)cc(Cl)c1O", "z-score": 0.135}
{"COMPOUND": "CN1C(=O)C2C(C1=O)C1C=C(c3ccc(CO)cc3)C2C(C2CC2)N1Cc1cc2c(cc1Br)OCO2 (centres undefined)", "z-score": -1.84}

====

# Test system: Chordin-like protein 2 (CHRDL2)
# PROTOCOL_SUMMARY: compounds binding chordin-like 2 – biochemical, small-molecule microarray, 635 nm fluorescence, primary screen (AID 1126);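 note: printed compound slides probed with Chrdl2 protein at 4 µg/mL for 1 h at 4 C; score merges 667 nm emission intensity with signal to noise over three replicate slides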
# MEASUREMENT_PARAMETERS: fluorescence 635 nm, higher = more signal

{"COMPOUND": "CCCC[C@H]1C[C@@H]1[C@@H]1N(P(=O)(c2ccccc2)c2ccccc2)[C@](CO)(c2ccccc2)CC12CC2", "composite z-score": -1.39}
{"COMPOUND": "CC(C)NC(=O)[C@@]1(c2ccc([N+](=O)[O-])cc2)CC(=O)N(C(C)C)[C@@H]1c1ccc(CO)cc1", "composite z-score": -1.66}
{"COMPOUND": "C=CCN1C(=O)[C@]2(COC(c3ccc(OCCCO)cc3)=N2)Cc2ccccc21", "composite z-score": 0.0453}
{"COMPOUND": "O=C1[C@H]2C=C(Br)[C@H](C[C@@H]2OCCOCCO)[C@@]12CO2", "composite z-score": 0.169}
{"COMPOUND": "C=CCC(OC(C)=O)[C@@H]1[C@@H](N(Cc2ccc(-c3cccc(C(F)(F)F)c3)o2)C(=O)Cc2ccc(OC)cc2)c2cc(OCCCO)ccc2N1C(=O)Cc1ccc(OC)cc1 (stereo not given in full)", "composite z-score": 0.292}
{"COMPOUND": "CC(=O)n1cc(C(O)C2C=CC3C(=O)N(c4ccccc4)C(=O)C3N2Nc2ccc(C#N)cc2)c2ccccc21 (stereo not given)", "composite z-score": -0.776}
{"COMPOUND": "O=C1O[C@H](c2ccccc2)[C@H](c2ccccc2)N2[C@H]1[C@@H](C(=O)N1CCCCCCC1)[C@]1(C(=O)Nc3ccc(C#CC4=CCCCC4)cc31)[C@H]2c1ccc(O)cc1", "composite z-score": 1.71}
{"COMPOUND": "O=P(NCC1(CC2(c3ccccc3)CO2)CC1)(c1ccccc1)c1ccccc1 (stereo not given)", "composite z-score": -0.821}
{"COMPOUND": "C=C(CCCC)C(=O)CC[C@H](OC(C)=O)c1ccc(CO)o1", "composite z-score": -0.149}
{"COMPOUND": "CC(C)[C@H]1COC(=O)N1C(=O)[C@H]1[C@@H](c2ccccc2)N(c2ccccc2)O[C@@H]1C", "composite z-score": 0.827}
{"COMPOUND": "O=C(NCc1ccccc1)[C@@H]1c2ccccc2C(=O)N(Cc2cc(F)cc(C(F)(F)F)c2)[C@H]1c1ccc(CO)cc1", "composite z-score": 0.161}
{"COMPOUND": "COC(=O)C(CC#Cc1ccc2c(c1)[C@]1(C(=O)N2)[C@H](C(=O)N2CCCCCCC2)[C@H]2C(=O)O[C@H](c3ccccc3)[C@H](c3ccccc3)N2[C@@H]1c1ccccc1OCCO)C(=O)OC", "composite z-score": 1.68}
{"COMPOUND": "COc1ccc(C(O)C2C=CC3C(=O)N(c4ccccc4)C(=O)C3N2Nc2ccccc2)c2ccccc12 (stereo not given)", "composite z-score": -0.841}
{"COMPOUND": "O=C1C2C=CC(C(O)CCc3ccccc3)N(Nc3ccccc3)C2C(=O)N1c1ccccc1 (stereo not given)", "composite z-score": -0.788}
{"COMPOUND": "COc1ccc([Si](C)(C)[C@@H]2[C@@H](CCO)O[C@]3(C(=O)N(Cc4ccc(N5C(=O)c6cccc7cccc5c67)cc4)c4ccccc43)[C@H]2C)cc1", "composite z-score": -0.161}
